Here, each record is paired with measured kon data.
targetUnderTest: T1, Vaccinia Virus, Western Reserve, L1R Protein with C-Terminal Histidine Tag (Vaccinia virus, strain Western Reserve, UniProt P07612)
T1 construct: also called L1 antigen; recombinant L1 antigen; source: obtained through BEI Resources (NR-2625), recombinant from baculovirus
assayDetails: SPR; […] (10 µg/ml, […], dissociation 600 s; […]
protocolConditions: both partners purified
Unit M⁻¹ s⁻¹ implied. Number only.

| binder | measurementUnit | kon |
| --- | --- | --- |
| L1-H2 (VHH, llama sdAb of the L1-H2 family; also called sdAb L1-H2) VHH: EVQLQASGGGLVQAGGSLRLSCAASGRTLSTGVMGWFRQLPGKEREFVARITWIAGSSLYADSVKGRFTISRDNTNNTVYLQMNALKPEDTAVYYCAANLAGNSWPYKTPMDYDSWGQGTQVTVSS | M⁻¹ s⁻¹ | 1.2e+06 |
| L1-H7 (VHH, llama sdAb of the L1-H7 family; also called sdAb L1-H7) VHH: EVQLQASGGGLVQAGGSLRLSCIASGRAFSTTNMGWFRQAPGKEREFVTRVNWSGGVTSYADSVKGRFTLSRDNTKNTVYLQMNSLKPEDTAVYYCAGSTVWSTDRAHYNYWGRGTQVTVSS | M⁻¹ s⁻¹ | 560000 |

// field: kon; key: L1-E2 (VHH, llama sdAb, only member of the L1-E2 family; also called sdAb L1-E2) VHH: EVQLQASGGGLVQPGGSLRLSCAASGFSISSATMSWVRQAPGKGLEWVSTVQDGAGIISSADSAKARFTISRDSAKNTLYLQMNSLKPEDTAVYYCRTVVFGRILRGQGTQVTVSS ; value = 6.5e+06
